The origin of these recorded values is paper PMC8058344.

Test Target: GSK3α (Homo sapiens)
Sequence (P49840 whole entry): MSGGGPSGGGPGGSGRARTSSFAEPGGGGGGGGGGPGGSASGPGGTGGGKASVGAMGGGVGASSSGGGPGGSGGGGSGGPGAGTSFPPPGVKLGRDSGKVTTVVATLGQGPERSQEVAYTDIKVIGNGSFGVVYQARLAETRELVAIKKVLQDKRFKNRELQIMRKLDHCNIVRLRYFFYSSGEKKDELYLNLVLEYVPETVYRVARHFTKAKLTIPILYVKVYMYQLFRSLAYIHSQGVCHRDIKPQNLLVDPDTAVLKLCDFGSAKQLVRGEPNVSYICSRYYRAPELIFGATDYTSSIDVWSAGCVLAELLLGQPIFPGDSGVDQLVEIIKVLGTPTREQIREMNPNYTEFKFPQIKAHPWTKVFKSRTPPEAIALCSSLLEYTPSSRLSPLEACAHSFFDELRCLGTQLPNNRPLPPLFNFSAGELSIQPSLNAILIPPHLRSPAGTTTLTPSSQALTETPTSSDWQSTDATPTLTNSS
Assay Remarks: In vitro kinase specificity profiling for GSK3α
Format: biochemical
Measurement Parameters: single independent tests
Measured Property: IC50

Exercise: // Input: "C=CC(=O)Nc1cccc(Nc2nc(Nc3ccc(N4CCN(C)CC4)nc3OC)ncc2C(F)(F)F)c1" . Output its IC50 only.
Key: > 40 µM

----------
Test Target: T790M/L858R EGFR (Homo sapiens, UniProt P00533, L858R/T790M)
Sequence (P00533 25-1210 T790M/L858R): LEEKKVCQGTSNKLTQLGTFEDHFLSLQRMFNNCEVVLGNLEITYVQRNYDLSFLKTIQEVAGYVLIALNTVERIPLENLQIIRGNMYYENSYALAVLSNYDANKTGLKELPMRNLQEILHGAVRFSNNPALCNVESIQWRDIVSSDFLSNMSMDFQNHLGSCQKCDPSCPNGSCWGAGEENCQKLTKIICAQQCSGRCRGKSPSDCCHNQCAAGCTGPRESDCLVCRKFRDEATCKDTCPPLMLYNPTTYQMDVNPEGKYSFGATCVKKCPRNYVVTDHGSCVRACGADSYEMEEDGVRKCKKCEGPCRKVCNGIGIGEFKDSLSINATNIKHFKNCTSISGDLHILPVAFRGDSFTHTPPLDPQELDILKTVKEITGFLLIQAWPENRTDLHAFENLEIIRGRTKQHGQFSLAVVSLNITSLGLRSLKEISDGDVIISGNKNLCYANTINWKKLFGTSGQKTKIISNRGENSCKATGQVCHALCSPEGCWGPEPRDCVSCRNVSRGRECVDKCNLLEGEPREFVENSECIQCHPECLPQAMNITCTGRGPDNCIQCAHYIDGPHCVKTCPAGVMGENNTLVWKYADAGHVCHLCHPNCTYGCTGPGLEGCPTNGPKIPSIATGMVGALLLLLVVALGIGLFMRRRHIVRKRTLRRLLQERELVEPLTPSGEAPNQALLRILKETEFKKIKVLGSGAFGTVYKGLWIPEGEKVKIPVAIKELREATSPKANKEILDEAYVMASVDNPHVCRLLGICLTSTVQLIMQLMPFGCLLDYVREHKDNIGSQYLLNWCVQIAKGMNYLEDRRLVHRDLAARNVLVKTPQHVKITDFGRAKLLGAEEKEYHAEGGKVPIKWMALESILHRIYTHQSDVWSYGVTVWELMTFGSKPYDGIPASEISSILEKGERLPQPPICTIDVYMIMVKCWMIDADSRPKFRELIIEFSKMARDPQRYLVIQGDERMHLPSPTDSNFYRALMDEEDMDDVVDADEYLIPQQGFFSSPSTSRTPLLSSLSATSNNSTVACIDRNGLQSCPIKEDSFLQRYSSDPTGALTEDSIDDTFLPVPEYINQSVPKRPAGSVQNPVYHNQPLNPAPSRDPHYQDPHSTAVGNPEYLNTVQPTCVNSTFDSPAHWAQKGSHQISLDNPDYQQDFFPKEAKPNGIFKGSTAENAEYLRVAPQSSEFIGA
Assay Remarks: In vitro kinase specificity profiling
Measured Property: pIC50
pIC50 field: float, defined as -log10 of concentration (mol/L).

Exercise: // Input: C=CC(=O)Nc1cccc(Nc2nc(Nc3ccc(N4CCN(C)CC4)nc3OC)ncc2C(F)(F)F)c1 [ES-072] . Output its pIC50 only.
Key: 8.76

----------
Test Target: EGFR L858R (Homo sapiens, UniProt P00533, L858R)
Sequence (P00533 25-1210 L858R): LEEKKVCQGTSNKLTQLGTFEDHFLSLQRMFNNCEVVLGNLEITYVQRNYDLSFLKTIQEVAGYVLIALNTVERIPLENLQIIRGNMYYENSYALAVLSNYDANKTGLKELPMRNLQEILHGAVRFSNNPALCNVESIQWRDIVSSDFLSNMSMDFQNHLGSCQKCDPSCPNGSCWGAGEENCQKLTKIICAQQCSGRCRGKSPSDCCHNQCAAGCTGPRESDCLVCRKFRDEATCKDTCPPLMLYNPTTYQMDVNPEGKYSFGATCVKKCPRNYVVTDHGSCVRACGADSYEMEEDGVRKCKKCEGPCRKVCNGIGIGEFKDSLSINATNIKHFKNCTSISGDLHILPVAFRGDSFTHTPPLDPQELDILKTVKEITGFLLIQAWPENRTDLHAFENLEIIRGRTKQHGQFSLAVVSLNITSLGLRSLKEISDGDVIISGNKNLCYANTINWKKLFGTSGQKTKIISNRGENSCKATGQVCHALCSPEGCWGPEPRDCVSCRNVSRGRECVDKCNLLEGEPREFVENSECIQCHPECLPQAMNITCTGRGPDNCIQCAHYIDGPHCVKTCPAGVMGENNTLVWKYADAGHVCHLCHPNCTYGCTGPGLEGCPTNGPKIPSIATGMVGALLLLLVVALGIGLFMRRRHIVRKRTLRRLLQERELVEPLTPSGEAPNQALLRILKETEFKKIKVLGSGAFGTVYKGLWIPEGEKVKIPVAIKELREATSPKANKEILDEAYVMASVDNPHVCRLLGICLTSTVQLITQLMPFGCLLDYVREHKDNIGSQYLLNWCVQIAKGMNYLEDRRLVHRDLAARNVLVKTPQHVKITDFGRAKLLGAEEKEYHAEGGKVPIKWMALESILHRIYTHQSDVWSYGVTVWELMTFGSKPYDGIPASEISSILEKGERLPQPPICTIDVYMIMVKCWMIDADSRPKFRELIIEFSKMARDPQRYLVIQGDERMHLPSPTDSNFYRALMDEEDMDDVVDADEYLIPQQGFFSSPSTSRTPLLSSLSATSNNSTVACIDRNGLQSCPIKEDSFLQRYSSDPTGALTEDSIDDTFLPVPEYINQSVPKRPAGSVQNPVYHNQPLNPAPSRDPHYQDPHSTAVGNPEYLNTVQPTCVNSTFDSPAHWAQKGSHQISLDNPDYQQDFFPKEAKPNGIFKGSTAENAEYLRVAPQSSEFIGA
Assay Remarks: In vitro kinase specificity profiling
Measured Property: pIC50
pIC50 field: float, defined as -log10 of concentration (mol/L).

Exercise: // Input: "C=CC(=O)Nc1cccc(Nc2nc(Nc3ccc(N4CCN(C)CC4)nc3OC)ncc2C(F)(F)F)c1" . Output its pIC50 only.
Key: 8.57

----------
Test Target: EGFR T790M (Homo sapiens, UniProt P00533, T790M)
Sequence (P00533 25-1210 T790M): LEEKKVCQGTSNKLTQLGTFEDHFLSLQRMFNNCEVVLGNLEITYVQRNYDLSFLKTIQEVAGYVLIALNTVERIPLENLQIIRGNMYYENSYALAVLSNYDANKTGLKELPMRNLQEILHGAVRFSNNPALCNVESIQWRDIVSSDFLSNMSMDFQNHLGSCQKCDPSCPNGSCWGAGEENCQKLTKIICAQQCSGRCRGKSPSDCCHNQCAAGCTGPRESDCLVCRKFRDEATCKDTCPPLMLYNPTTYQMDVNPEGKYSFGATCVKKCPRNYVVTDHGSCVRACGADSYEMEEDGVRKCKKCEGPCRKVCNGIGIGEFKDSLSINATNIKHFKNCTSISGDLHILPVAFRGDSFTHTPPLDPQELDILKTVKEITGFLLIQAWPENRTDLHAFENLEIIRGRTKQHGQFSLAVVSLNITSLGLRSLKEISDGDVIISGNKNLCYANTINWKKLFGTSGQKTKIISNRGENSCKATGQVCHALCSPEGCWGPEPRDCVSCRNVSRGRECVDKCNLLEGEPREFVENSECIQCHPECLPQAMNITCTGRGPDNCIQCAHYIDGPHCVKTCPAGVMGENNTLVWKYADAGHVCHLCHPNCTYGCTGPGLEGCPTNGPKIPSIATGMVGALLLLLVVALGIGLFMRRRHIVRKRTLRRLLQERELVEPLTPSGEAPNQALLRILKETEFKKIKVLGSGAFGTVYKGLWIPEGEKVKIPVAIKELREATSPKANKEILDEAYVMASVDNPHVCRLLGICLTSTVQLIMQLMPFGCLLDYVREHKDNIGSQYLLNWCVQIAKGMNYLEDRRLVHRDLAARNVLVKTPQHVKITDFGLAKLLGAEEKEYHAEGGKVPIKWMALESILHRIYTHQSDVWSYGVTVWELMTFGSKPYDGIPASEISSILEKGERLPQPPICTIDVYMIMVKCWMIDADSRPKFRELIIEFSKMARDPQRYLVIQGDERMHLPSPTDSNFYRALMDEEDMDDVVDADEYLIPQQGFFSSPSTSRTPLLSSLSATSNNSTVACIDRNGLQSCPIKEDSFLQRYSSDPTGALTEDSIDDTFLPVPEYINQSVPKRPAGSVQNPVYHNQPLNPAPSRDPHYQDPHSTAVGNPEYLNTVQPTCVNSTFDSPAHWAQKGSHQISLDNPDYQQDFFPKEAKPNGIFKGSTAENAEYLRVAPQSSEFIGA
Assay Remarks: In vitro kinase specificity profiling
Measured Property: IC50

Exercise: Tell me its IC50 on EGFR T790M (Homo sapiens, UniProt P00533, T790M): "C=CC(=O)Nc1cccc(Nc2nc(Nc3ccc(N4CCN(C)CC4)nc3OC)ncc2C(F)(F)F)c1"
Key: < 0.5 nM
